These data points were gathered from patent US20250313563A1.

# Target entity: UniProt P49840
# Sequence (P49840 whole entry): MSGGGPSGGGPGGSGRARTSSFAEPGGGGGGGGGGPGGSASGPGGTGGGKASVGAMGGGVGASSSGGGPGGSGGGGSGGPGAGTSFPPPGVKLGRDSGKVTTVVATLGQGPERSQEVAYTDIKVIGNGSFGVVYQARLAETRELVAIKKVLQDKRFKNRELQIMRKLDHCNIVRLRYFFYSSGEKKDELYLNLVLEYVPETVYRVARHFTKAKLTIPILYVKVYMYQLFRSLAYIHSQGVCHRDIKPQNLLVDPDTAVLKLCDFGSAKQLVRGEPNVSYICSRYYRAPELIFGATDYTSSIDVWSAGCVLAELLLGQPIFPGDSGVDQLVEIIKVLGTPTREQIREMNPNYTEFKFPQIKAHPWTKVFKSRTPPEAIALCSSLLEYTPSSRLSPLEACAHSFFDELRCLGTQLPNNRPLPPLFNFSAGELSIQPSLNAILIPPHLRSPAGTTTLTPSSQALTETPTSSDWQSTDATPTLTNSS
# Test details: GSK3α TR-FRET kinase assay
# Type: biochemical
# Condition summary: GSK3-A (TR-FRET 1 mM ATP); GMean; IC50, 1 mM ATP; geometric mean

>  <Compound>
CC1(C)CC(=O)C2=C(C1)Nc1n[nH]cc1[C@]21CCN(S(=O)(=O)c2ccccc2)C1 [Compound 943485]

>  <Target entity>
UniProt P49840

>  <IC50>
100 to 1000 nM

$$$$
>  <Compound>
Cn1ccc(S(=O)(=O)N2CC[C@]3(C2)C2=C(CC(C)(C)CC2=O)Nc2n[nH]cc23)n1 [Compound 945712]

>  <Target entity>
UniProt P49840

>  <IC50>
≤ 100 nM

$$$$
>  <Compound>
CCC1(c2cccc(C(F)(F)F)c2)C2=C(Nc3n[nH]cc31)C(F)C(C)(C)CC2=O (single isomer, unassigned) [Compound 837753]

>  <Target entity>
UniProt P49840

>  <IC50>
> 5000 nM

$$$$
>  <Compound>
COc1cc(S(=O)(=O)N2CCC3(CC2)C2=C(CC(C)(C)CC2=O)Nc2n[nH]cc23)ccc1F [Compound 947263]

>  <Target entity>
UniProt P49840

>  <IC50>
100 to 1000 nM

$$$$
>  <Compound>
CC[C@@]1(c2ccccc2)C2=C(CC(C)(C)CC2=O)Nc2n[nH]c(Br)c21 [Compound 792340]

>  <Target entity>
UniProt P49840

>  <IC50>
100 to 1000 nM

$$$$
>  <Compound>
CC1(C)CC(=O)C2=C(C1)Nc1n[nH]cc1C21CCN(S(=O)(=O)c2cccc(Cl)c2F)CC1 [Compound 948118]

>  <Target entity>
UniProt P49840

>  <IC50>
≤ 100 nM

$$$$
>  <Compound>
CC1(C)CC(=O)C2=C(Nc3n[nH]cc3[C@]23CC[C@@H](C(F)(F)F)CC3)[C@H]1F [Compound 918285]

>  <Target entity>
UniProt P49840

>  <IC50>
1000 to 5000 nM

$$$$
